Values were extracted from ChEMBL document CHEMBL1126749.

# system_name: UniProtKB P29089
# Sequence (P29089 whole entry): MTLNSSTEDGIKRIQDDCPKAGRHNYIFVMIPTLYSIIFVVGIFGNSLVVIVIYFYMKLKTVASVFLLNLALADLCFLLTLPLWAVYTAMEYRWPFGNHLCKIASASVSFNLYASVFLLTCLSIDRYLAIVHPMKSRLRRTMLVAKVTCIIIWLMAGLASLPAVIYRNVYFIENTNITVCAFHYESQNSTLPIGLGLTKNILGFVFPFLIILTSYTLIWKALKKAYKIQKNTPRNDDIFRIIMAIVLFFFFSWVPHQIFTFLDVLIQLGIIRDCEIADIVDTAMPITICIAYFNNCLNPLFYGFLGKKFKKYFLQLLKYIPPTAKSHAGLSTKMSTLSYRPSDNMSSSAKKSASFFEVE
# assay_overview: Inhibition of [125I]angiotensin-II binding to the angiotensin II receptor type 1 in rat uterine membranes
pIC50: −log10 of the molar value.
measured_property: pIC50

P = CCCCc1nn(C(C)CC)c(=O)n1Cc1ccc(-c2ccccc2-c2nn[nH]n2)cc1 (centres undefined)
Q = CCCCc1nn(CCCC)c(=O)n1Cc1ccc(-c2ccccc2C(=O)O)cc1
Of the two listed items, P and Q , which carries the larger pIC50 figure? To answer, give the label that identifies your chosen option. P
(P: 8.00, Q: 7.00)

a = CCCCCCn1nc(CCCC)n(Cc2ccc(-c3ccccc3-c3nn[nH]n3)cc2)c1=O
b = CCCCc1nn(CC(=O)OC(C)(C)C)c(=O)n1Cc1ccc(-c2ccccc2-c2nn[nH]n2)cc1
For the pair a and b , which entry has the numerically smaller recorded pIC50? To answer, give the label that identifies your chosen option. b

1 = CCCCc1nnc(O)n1Cc1ccc(-c2ccccc2-c2nn[nH]n2)cc1
2 = CCCCc1nn(CC(=O)c2ccccc2)c(=O)n1Cc1ccc(-c2ccccc2-c2nn[nH]n2)cc1
For the pair 1 and 2 , which entry has the numerically smaller recorded pIC50? To answer, give the label that identifies your chosen option. 1

A = CCCCc1nn(C(CC(=O)OCC)C(=O)c2ccccc2)c(=O)n1Cc1ccc(-c2ccccc2-c2nn[nH]n2)cc1 (centres undefined)
B = CCCCc1nn(CC(OC)c2ccccc2)c(=O)n1Cc1ccc(-c2ccccc2-c2nn[nH]n2)cc1 (centres undefined)
Of the two listed items, A and B , which carries the larger pIC50 figure? To answer, give the label that identifies your chosen option. B
